species on record: Rattus norvegicus; assay: Open TG-GATES - Regimen: Daily Repeat; type: toxicity, organism-based, Sprague-Dawley; set-up: regimen Daily Repeat, gender Male, age 6 weeks; settings: in vivo, po, 0 mg/kg, […], tissue Plasma, route gavage, dose level Control, time 14 day
assay.metric: AST (IU/L)

[[record]]
compound = "C=C(C)[C@H]1Cc2c(ccc3c2O[C@@H]2COc4cc(OC)c(OC)cc4[C@@H]2C3=O)O1"
assay_result = 67.2

[[record]]
compound = "OCCN1CCN(CCCN2c3ccccc3Sc3ccc(C(F)(F)F)cc32)CC1"
assay_result = 55.8

[[record]]
compound = "C[C@H]1O[C@H](O[C@H]2[C@H](O)[C@@H](O)[C@@H](O[C@H]3[C@H](O)[C@@H](O)C(O)O[C@@H]3CO)O[C@@H]2CO)[C@H](O)[C@@H](O)[C@@H]1N[C@H]1C=C(CO)[C@@H](O)[C@H](O)[C@H]1O (stereo partly drawn)"
assay_result = 72.2


---

organism: Rattus norvegicus; assay: Open TG-GATES - Regimen: Daily Repeat; type: toxicity, organism-based, Sprague-Dawley; parameters: regimen Daily Repeat, gender Male, age 6 weeks; details: in vivo, po, 0 mg/kg, […], tissue Plasma, route gavage, dose level Control, time 7 day
Recorded measurements of ALT, one per entry
assay.metric: ALT (IU/L)

[[record]]
compound = "O=[N+]([O-])c1ccc(O)c([N+](=O)[O-])c1"
assay_result = 38.6

[[record]]
compound = "Cn1cc[nH]c1=S"
assay_result = 39

[[record]]
compound = "Cc1cccc(C)c1OCC(C)N (stereo not given)"
assay_result = 42.2

[[record]]
compound = "OCCN1CCN(CCCN2c3ccccc3Sc3ccc(C(F)(F)F)cc32)CC1"
assay_result = 30.4

[[record]]
compound = "C[C@H]1C(=O)O[C@@H]2CCN3CC=C(COC(=O)[C@](C)(O)[C@]1(C)O)[C@H]23"
assay_result = 37.8


---

organism: Rattus norvegicus; assay: Open TG-GATES - Regimen: Single; type: toxicity, organism-based, Sprague-Dawley; set-up: regimen Single, gender Male, age 6 weeks; conditions: in vivo, po, 0 mg/kg, 6 h, tissue Plasma, route gavage, dose level Control
Recorded measurements of DBIL, one per entry
assay.metric: DBIL

[[record]]
molecule = "C=C(C)[C@H]1Cc2c(ccc3c2O[C@@H]2COc4cc(OC)c(OC)cc4[C@@H]2C3=O)O1"
assay_result = "0.01 mg/dL"

[[record]]
molecule = "O=[N+]([O-])c1ccc(O)c([N+](=O)[O-])c1"
assay_result = "0.01 mg/dL"

[[record]]
molecule = "OCCN1CCN(CCCN2c3ccccc3Sc3ccc(C(F)(F)F)cc32)CC1"
assay_result = "0.03 mg/dL"

[[record]]
molecule = "Cc1ccc2cc3c(ccc4ccccc43)c3c2c1CC3"
assay_result = "0.002 mg/dL"

[[record]]
molecule = "CCOC(=O)C(C)(C)Oc1ccc(Cl)cc1 [CLOFIBRATE]"
assay_result = "0.1 mg/dL"


---

Recorded measurements of A/G, one per entry
species: Rattus norvegicus; assay: Open TG-GATES - Regimen: Daily Repeat; type: toxicity, organism-based, Sprague-Dawley; design: regimen Daily Repeat, gender Male, age 6 weeks; conditions: in vivo, po, 0 mg/kg, 72 h, tissue Plasma, route gavage, dose level Control, time 3 day
assay.metric: A/G

[[record]]
compound = "C[C@H]1O[C@H](O[C@H]2[C@H](O)[C@@H](O)[C@@H](O[C@H]3[C@H](O)[C@@H](O)C(O)O[C@@H]3CO)O[C@@H]2CO)[C@H](O)[C@@H](O)[C@@H]1N[C@H]1C=C(CO)[C@@H](O)[C@H](O)[C@H]1O (stereo partly drawn)"
assay_result = 0.9

[[record]]
compound = "Cc1cccc(C)c1OCC(C)N (stereo not drawn)"
assay_result = 1.3

[[record]]
compound = "Cn1cc[nH]c1=S"
assay_result = 1.3

[[record]]
compound = "O=[N+]([O-])c1ccc(O)c([N+](=O)[O-])c1"
assay_result = 2.3

[[record]]
compound = "C=C(C)[C@H]1Cc2c(ccc3c2O[C@@H]2COc4cc(OC)c(OC)cc4[C@@H]2C3=O)O1"
assay_result = 2.3

[[record]]
compound = "CCOC(=O)C(C)(C)Oc1ccc(Cl)cc1 [CLOFIBRATE]"
assay_result = 1.6

[[record]]
compound = "C[C@H]1C(=O)O[C@@H]2CCN3CC=C(COC(=O)[C@](C)(O)[C@]1(C)O)[C@H]23"
assay_result = 1.2

[[record]]
compound = "O=C1CN(/N=C/c2ccc([N+](=O)[O-])o2)C(=O)N1"
assay_result = 1.5


---

organism: Rattus norvegicus; experiment: Open TG-GATES - Regimen: Single; assay type: toxicity, organism-based, Sprague-Dawley; design: regimen Single, gender Male, age 6 weeks; conditions: in vivo, po, 0 mg/kg, 9 h, tissue Liver, route gavage, dose level Control
assay.metric: LIVER

[[record]]
compound = "CCOC(=O)C(C)(C)Oc1ccc(Cl)cc1 [CLOFIBRATE]"
assay_result = "9 g"

[[record]]
compound = "Cc1cccc(C)c1OCC(C)N (stereo not drawn) [MEXILETINE]"
assay_result = "8.7 g"

[[record]]
compound = "OCCN1CCN(CCCN2c3ccccc3Sc3ccc(C(F)(F)F)cc32)CC1 [FLUPHENAZINE]"
assay_result = "8.6 g"

[[record]]
compound = "C[C@H]1C(=O)O[C@@H]2CCN3CC=C(COC(=O)[C@](C)(O)[C@]1(C)O)[C@H]23 [MONOCROTALINE]"
assay_result = "8.6 g"

[[record]]
compound = "Cc1ccc2cc3c(ccc4ccccc43)c3c2c1CC3 [3-METHYLCHOLANTHRENE]"
assay_result = "8.4 g"

[[record]]
compound = "O=[N+]([O-])c1ccc(O)c([N+](=O)[O-])c1 [2,4-DINITROPHENOL]"
assay_result = "8.7 g"

[[record]]
compound = "C[C@H]1O[C@H](O[C@H]2[C@H](O)[C@@H](O)[C@@H](O[C@H]3[C@H](O)[C@@H](O)C(O)O[C@@H]3CO)O[C@@H]2CO)[C@H](O)[C@@H](O)[C@@H]1N[C@H]1C=C(CO)[C@@H](O)[C@H](O)[C@H]1O (stereo partly drawn) [ACARBOSE]"
assay_result = "8.1 g"

[[record]]
compound = "C=C(C)[C@H]1Cc2c(ccc3c2O[C@@H]2COc4cc(OC)c(OC)cc4[C@@H]2C3=O)O1 [ROTENONE]"
assay_result = "8 g"


---

Recorded measurements of ALP, one per entry
species on record: Rattus norvegicus; assay: Open TG-GATES - Regimen: Single; format: toxicity, organism-based, Sprague-Dawley; parameters: regimen Single, gender Male, age 6 weeks; settings: in vivo, po, 0 mg/kg, 3 h, tissue Plasma, route gavage, dose level Control
assay.metric: ALP (IU/L)

[[record]]
molecule = "O=[N+]([O-])c1ccc(O)c([N+](=O)[O-])c1 [2,4-DINITROPHENOL]"
assay_metric = "ALP"
assay_result = 1373.4

[[record]]
molecule = "Cc1cccc(C)c1OCC(C)N (centres undefined) [MEXILETINE]"
assay_metric = "ALP"
assay_result = 1498

[[record]]
molecule = "C=C(C)[C@H]1Cc2c(ccc3c2O[C@@H]2COc4cc(OC)c(OC)cc4[C@@H]2C3=O)O1 [ROTENONE]"
assay_metric = "ALP"
assay_result = 1432.2

[[record]]
molecule = "C[C@H]1O[C@H](O[C@H]2[C@H](O)[C@@H](O)[C@@H](O[C@H]3[C@H](O)[C@@H](O)C(O)O[C@@H]3CO)O[C@@H]2CO)[C@H](O)[C@@H](O)[C@@H]1N[C@H]1C=C(CO)[C@@H](O)[C@H](O)[C@H]1O (some centres undefined) [ACARBOSE]"
assay_metric = "ALP"
assay_result = 1499.8

[[record]]
molecule = "Cn1cc[nH]c1=S [METHIMAZOLE]"
assay_metric = "ALP"
assay_result = 1879.2

[[record]]
molecule = "OCCN1CCN(CCCN2c3ccccc3Sc3ccc(C(F)(F)F)cc32)CC1 [FLUPHENAZINE]"
assay_metric = "ALP"
assay_result = 888.6

[[record]]
molecule = "C[C@H]1C(=O)O[C@@H]2CCN3CC=C(COC(=O)[C@](C)(O)[C@]1(C)O)[C@H]23 [MONOCROTALINE]"
assay_metric = "ALP"
assay_result = 1563.2

[[record]]
molecule = "CCOC(=O)C(C)(C)Oc1ccc(Cl)cc1 [CLOFIBRATE]"
assay_metric = "ALP"
assay_result = 1250.4

[[record]]
molecule = "Cc1ccc2cc3c(ccc4ccccc43)c3c2c1CC3 [3-METHYLCHOLANTHRENE]"
assay_metric = "ALP"
assay_result = 1726.2


---

species: Rattus norvegicus; assay: Open TG-GATES - Regimen: Daily Repeat; format: toxicity, organism-based, Sprague-Dawley; design: regimen Daily Repeat, gender Male, age 6 weeks; details: in vivo, po, 0 mg/kg, 72 h, tissue Blood, route gavage, dose level Control, time 3 day
Recorded measurements of Lym, one per entry
assay.metric: Lym (%)

[[record]]
compound = "Cn1cc[nH]c1=S"
readout_unit = "%"
assay_result = 84.8

[[record]]
compound = "C[C@H]1O[C@H](O[C@H]2[C@H](O)[C@@H](O)[C@@H](O[C@H]3[C@H](O)[C@@H](O)C(O)O[C@@H]3CO)O[C@@H]2CO)[C@H](O)[C@@H](O)[C@@H]1N[C@H]1C=C(CO)[C@@H](O)[C@H](O)[C@H]1O (some centres undefined)"
readout_unit = "%"
assay_result = 73.2

[[record]]
compound = "C[C@H]1C(=O)O[C@@H]2CCN3CC=C(COC(=O)[C@](C)(O)[C@]1(C)O)[C@H]23"
readout_unit = "%"
assay_result = 83.8

[[record]]
compound = "O=C1CN(/N=C/c2ccc([N+](=O)[O-])o2)C(=O)N1"
readout_unit = "%"
assay_result = 80.6

